subjectOfTest: human SGLT2 (Homo sapiens)
procedureSummary: SGLT2 inhibition assay, 14C-AMG uptake in CHO-K1 cells stably expressing human SGLT2
pIC50: −log10 of the molar value. Where a name gives a salt, the structure may show the parent alone.
Entry flag: true (1) if pIC50 reaches 8; false (0) if it does not.

Some solved cases for reference:
# compound, subjectOfTest, category
measured = [
    ("C[N+]1(Cc2ccc(COc3ccc(Cc4cc([C@@H]5O[C@H](CO)[C@@H](O)[C@H](O)[C@H]5O)ccc4Cl)cc3)cc2)CCC(CCC2CC[N+](C)(Cc3ccc(COc4ccc(Cc5cc([C@@H]6O[C@H](CO)[C@@H](O)[C@H](O)[C@H]6O)ccc5Cl)cc4)cc3)CC2)CC1 (some centres unmarked) [Compound 17, trifluoroacetate]", "human SGLT2 (Homo sapiens)", "true (1)"),
    ("OC[C@H]1O[C@@H](c2ccc(Cl)c(Cc3ccc(OCCOCCOCCOc4ccc(Cc5cc([C@@H]6O[C@H](CO)[C@@H](O)[C@H](O)[C@H]6O)ccc5Cl)cc4)cc3)c2)[C@H](O)[C@@H](O)[C@@H]1O", "human SGLT2 (Homo sapiens)", "false (0)"),
    ("C[N+]1(Cc2ccc(COc3ccc(Cc4cc([C@@H]5O[C@H](CO)[C@@H](O)[C@H](O)[C@H]5O)ccc4Cl)cc3)cc2)CCC(C2CC[N+](C)(Cc3ccc(COc4ccc(Cc5cc([C@@H]6O[C@H](CO)[C@@H](O)[C@H](O)[C@H]6O)ccc5Cl)cc4)cc3)CC2)CC1 (some centres unmarked) [Compound 16, trifluoroacetate]", "human SGLT2 (Homo sapiens)", "true (1)"),
    ("OC[C@H]1O[C@@H](c2ccc(Cl)c(Cc3ccc(OCc4ccc(COc5ccc(Cc6cc([C@@H]7O[C@H](CO)[C@@H](O)[C@H](O)[C@H]7O)ccc6Cl)cc5)cc4)cc3)c2)[C@H](O)[C@@H](O)[C@@H]1O", "human SGLT2 (Homo sapiens)", "false (0)"),
]

For the next question, use this compound.
Hello, I need to know if O=C(O)C(CCC(Oc1ccc(Cc2cc([C@@H]3O[C@H](CO)[C@@H](O)[C@H](O)[C@H]3O)ccc2Cl)cc1)C(=O)O)Oc1ccc(Cc2cc([C@@H]3O[C@H](CO)[C@@H](O)[C@H](O)[C@H]3O)ccc2Cl)cc1 (mixture of isomers) has measured pIC50 not below 8. Thanks!
false (0)

---

subjectOfTest: human SGLT2 (Homo sapiens, UniProt P31639)
Sequence (P31639 whole entry): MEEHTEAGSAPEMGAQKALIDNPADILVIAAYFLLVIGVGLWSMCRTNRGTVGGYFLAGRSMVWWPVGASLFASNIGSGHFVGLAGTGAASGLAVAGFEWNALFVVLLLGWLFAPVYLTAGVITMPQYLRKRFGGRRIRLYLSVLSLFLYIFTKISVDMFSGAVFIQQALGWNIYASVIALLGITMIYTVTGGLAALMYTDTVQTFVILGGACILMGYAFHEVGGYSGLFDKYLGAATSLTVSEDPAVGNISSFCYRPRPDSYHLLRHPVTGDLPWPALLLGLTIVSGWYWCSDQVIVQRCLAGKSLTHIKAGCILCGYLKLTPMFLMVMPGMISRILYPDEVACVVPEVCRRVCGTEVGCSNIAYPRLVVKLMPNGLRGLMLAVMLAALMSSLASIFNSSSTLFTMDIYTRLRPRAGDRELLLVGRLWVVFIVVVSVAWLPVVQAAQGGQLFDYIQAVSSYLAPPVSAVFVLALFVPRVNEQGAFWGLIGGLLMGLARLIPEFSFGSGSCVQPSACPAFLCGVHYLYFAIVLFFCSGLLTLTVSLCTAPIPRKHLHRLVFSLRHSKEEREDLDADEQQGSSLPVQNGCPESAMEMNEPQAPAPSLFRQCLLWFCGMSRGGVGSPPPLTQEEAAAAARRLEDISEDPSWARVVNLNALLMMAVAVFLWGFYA
procedureSummary: SGLT2 inhibition assay, 14C-AMG uptake in CHO-K1 cells stably expressing human SGLT2
endpoint: pIC50
Just so you know, pIC50 here is -log10 of the concentration in molar units; reply with that number alone.

# compound, endpoint, observedValue
rows = [
    ("OC[C@H]1O[C@H](c2ccc(Cl)c(Cc3ccc(OCc4cc(COc5ccc(Cc6cc([C@@H]7O[C@H](CO)[C@@H](O)[C@H](O)[C@H]7O)ccc6Cl)cc5)c(COc5ccc(Cc6cc([C@@H]7O[C@H](CO)[C@@H](O)[C@H](O)[C@H]7O)ccc6Cl)cc5)cc4COc4ccc(Cc5cc([C@@H]6O[C@H](CO)[C@@H](O)[C@H](O)[C@H]6O)ccc5Cl)cc4)cc3)c2)[C@H](O)[C@@H](O)[C@@H]1O [(III)]", "pIC50", 7.48),
]

Please examine the following record next.
The compound OC[C@H]1O[C@@H](c2ccc(Cl)c(Cc3ccc(OCCOCCOCCOCCOc4ccc(Cc5cc([C@@H]6O[C@H](CO)[C@@H](O)[C@H](O)[C@H]6O)ccc5Cl)cc4)cc3)c2)[C@H](O)[C@@H](O)[C@@H]1O [Compound 12] showed pIC50 equal to 8.02

Each recorded value in this set is attributed to patent US20210388015A1.
